assay: Elimination half life in ND4 Swiss Webster mouse at 12.5 to 25 mg/kg, ip; assay type: ADME, organism-based; set-up: dose 12.5-25 mg/kg, route intraperitoneal; conditions: in vivo, read-out: beta t1/2
attribute-measured: half-life

* O=C1/C(=C/c2ccccn2)CNC/C1=C\c1ccccn1 | ≤ 1 min

###

assay: Half life in human liver S9 fraction at 2 uM in absence of NADPH
attribute-measured: half-life at 2 µM (min)

• CN1C/C(=C\c2ccccn2)C(=O)/C(=C/c2ccccn2)C1 = 18
